test system: MOLT-4 leukemia; assay: NCI tumour cell line growth inhibition, 48 h
Label scheme for TGI: lower than 10 µM is F, 10 µM and above is T.

Past entries and their recorded results:
INSERT INTO assay_data (compound, classification) VALUES
  ('CC(C)=CC1CC(=O)C1(C)Sc1ccccc1 (stereo unspecified)', 'T'),
  ('Cc1cc(S(=O)(=O)Nc2n[nH]c(-c3ccc(Cl)cn3)n2)c(S)cc1Cl', 'T'),
  ('CCCCCNC(=O)c1cc2cc(CCl)ccc2oc1=O', 'T'),
  ('O=c1[nH]c2nc3ccccc3n2c(O)c1-c1ccccc1', 'T'),
  ('N#CC12CC3=C(N=C1NC1=C(CCc4ccccc41)C2)c1ccccc1CC3 (stereo unspecified)', 'F'),
  ('Nc1nc(N)c(-c2cccc(C(F)(F)F)c2)c(Cc2cccc(C(F)(F)F)c2)n1', 'T'),
  ('OCCCc1n(Cc2ccc3ccccc3c2)c2ccccc2[n+]1Cc1ccc2ccccc2c1', 'F'),
  ('N#CCCN(c1ccc(/C=N/c2nc(-c3ccccc3)cs2)cc1)S(=O)(=O)c1ccccc1', 'T'),
  ('CS(=O)(=O)c1ccc(Oc2cc(F)cc(C#N)c2)c2c1[C@H](O)[C@H](F)[C@H]2F', 'T');

Consider the record given below.
*Q* Record "COc1ccc(/C=N/Nc2nc(-c3cc4oc(=O)n(C)c4cc3Cl)cs2)cc1OC" ; criterion: TGI no lower than 10 µM. Met?
*A* T

From: PubChem BioAssay (NCI)
